Source: PubChem BioAssay

system: Sam68 (KHDRBS1); assay: Sam68 small-molecule binders, primary screen, biochemical, small-molecule microarray, 635 nm fluorescence (AID 1125); settings: small-molecule microarray binding, higher = more signal;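 note: score merges 667 nm channel intensity with signal to noise over triplicate slides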
# cutoff 1 applies to composite z-score; >= gives satisfied, < gives not satisfied

molecule=CC(C)[C@@H](OCc1ccccc1)[C@H](C)C=NO[C@@H](C)c1cn([C@H](CO)Cc2ccccc2)nn1 testedtarget="Sam68 (KHDRBS1)" assignedcategory="not satisfied"
molecule=COc1ccc(O[C@H]2C=C[C@@H](c3ccccc3)O[C@@H]2COC(=O)NCc2cccc3ccccc23)cc1 testedtarget="Sam68 (KHDRBS1)" assignedcategory="not satisfied"
molecule=CC(C)=CCCC(C)=CCON=C1C[C@@H](O)[C@@H](O)[C@@H]2[C@@H]3C(=O)N(Cc4ccc5c(c4)OCO5)C(=O)[C@@H]3CC[C@H]12 testedtarget="Sam68 (KHDRBS1)" assignedcategory="not satisfied"
molecule=CC(=O)OC[C@H]1O[C@H](C#CCCc2ccccc2)C=C[C@@H]1OC(C)=O testedtarget="Sam68 (KHDRBS1)" assignedcategory="not satisfied"
molecule=CC(=O)OC[C@H]1O[C@@H](ON=C(C)CCC(=O)OC[C@H]2O[C@H](C#Cc3ccccc3)C=C[C@@H]2Oc2ccc(C)cc2)[C@H](OC(C)=O)[C@@H](OC(C)=O)[C@@H]1OC(C)=O testedtarget="Sam68 (KHDRBS1)" assignedcategory=satisfied
molecule="O=C1CCCC=C1C(O)C1CCCCC1 (stereo unspecified)" testedtarget="Sam68 (KHDRBS1)" assignedcategory="not satisfied"
molecule=COc1ccc(COC(=O)NN=C2C[C@@H](O)[C@@H](O)[C@@H]3[C@@H]4C(=O)N(C(C)(C)C)C(=O)[C@@H]4CC[C@@H]23)cc1 testedtarget="Sam68 (KHDRBS1)" assignedcategory=satisfied
molecule=COC(=O)[C@H](CCSC)NC(=O)CC=C[C@@H](C)CO testedtarget="Sam68 (KHDRBS1)" assignedcategory=satisfied
molecule=CCOC(=O)CCN1C(=O)[C@H]2[C@H]3[C@H](O)[C@H](O)CC(=NOCC=C(C)CCC=C(C)C)[C@H]3CC[C@H]2C1=O testedtarget="Sam68 (KHDRBS1)" assignedcategory="not satisfied"
molecule=CCOC(=O)CCN1C(=O)[C@H]2[C@H]3[C@H](O)[C@H](O)CC(=O)[C@@H]3CC[C@H]2C1=O testedtarget="Sam68 (KHDRBS1)" assignedcategory="not satisfied"
molecule=CC(C)[C@@H](OCc1ccccc1)[C@H](C)C=NO[C@H](C)c1cn([C@@H]2COC[C@H]2O)nn1 testedtarget="Sam68 (KHDRBS1)" assignedcategory=satisfied
molecule=C[C@@H]1CC[C@H]2C(=O)O[C@@H](COc3ccc(C(C)(C)C)cc3)CN2[C@H]1c1ccc(Br)cc1 testedtarget="Sam68 (KHDRBS1)" assignedcategory="not satisfied"
molecule=C#CCCCON=C1C[C@@H](O)[C@@H](O)[C@@H]2[C@@H]3C(=O)N(C[C@@H]4CCCO4)C(=O)[C@@H]3CC[C@H]12 testedtarget="Sam68 (KHDRBS1)" assignedcategory="not satisfied"
molecule=CON=C(C)CCC(=O)OC[C@H]1O[C@H](C#Cc2ccccc2)C=C[C@@H]1Oc1ccc(C)cc1 testedtarget="Sam68 (KHDRBS1)" assignedcategory="not satisfied"
